biological target: CHOK1 cells engineered to overexpress human CCR2 (Homo sapiens); construct: expressed in transfected cells; host or cells: CHOK1; test: Antibody Dependent Cellular Cytotoxicity (ADCC) Reporter Assay; format: cell-based; conditions: with anti-cotinine antibody (human IgG1 Fc, S239D/I332E); Jurkat FcγRIIIa NFAT-luciferase reporter cells; average if several runs; read-out: ADCC Reporter Assay pEC50 (converted)
Counter-ions that a name gives are not always drawn.
Give EC50 for every item shown.
# output: bare number, implied unit nM

query: Quote EC50 reported for CO[C@@H]1COCC[C@@H]1N[C@@H]1CC[C@](CCCNC(=O)[C@H]2CC[C@H](NC(=O)CCCO[C@H]3CC[C@H](OCCNC(=O)[C@H]4CC(=O)N(C)[C@@H]4c4cccnc4)CC3)CC2)(C(=O)N2CCc3ncc(C(F)(F)F)cc3C2)C1 please.
result: 0.631

query: Quote EC50 reported for CO[C@@H]1COCC[C@@H]1N[C@@H]1CC[C@](CCCNC(=O)[C@H]2CC[C@@H](NC(=O)CCCC(=O)NCCCC(=O)NCCCNC(=O)[C@H]3CC(=O)N(C)[C@@H]3c3cccnc3)CC2)(C(=O)N2CCc3ncc(C(F)(F)F)cc3C2)C1 please.
result: 0.631

query: Quote EC50 reported for CO[C@@H]1COCC[C@@H]1N[C@@H]1CC[C@](CCCNC(=O)[C@H]2CC[C@@H](NC(=O)CCOCCOCCOCCNC(=O)[C@H]3CC(=O)N(C)[C@@H]3c3cccnc3)CC2)(C(=O)N2CCc3ncc(C(F)(F)F)cc3C2)C1 [Example 17, Formic acid salt] please.
result: 6.31

query: Quote EC50 reported for CO[C@@H]1COCC[C@@H]1N[C@@H]1CC[C@](COCCNC(=O)[C@H]2CC[C@H](NC(=O)CCCO[C@H]3CC[C@H](OCCNC(=O)[C@H]4CC(=O)N(C)[C@@H]4c4cccnc4)CC3)CC2)(C(=O)N2CCc3ncc(C(F)(F)F)cc3C2)C1 please.
result: 2.51
